Measured values drawn from patent US20100105680A1 for this set.

- TESTED_TARGET: sigma-1 receptor (Cavia porcellus)
- Construct: guinea pig brains were homogenized; from tissue; host or cells: guinea pig brain membranes
- ASSAY_SUMMARY: Sigma-1 receptor binding ([3H]-(+)-pentazocine, brain membranes)
- STUDY_CONDITIONS: compound concentration 0.0100 μM; [3H]-(+)-pentazocine 0.5 nM; guinea pig brain membranes; read-out: Percent Inhibition Percent Concentration (μM) 0.0100 SIGMA-1 receptor
ENDPOINT: inhibition at 0.01 µM (%)

These solved cases illustrate the format of a correct answer.
[[record]]
compound = "CN1CCN(C[C@@H]2C[C@H](CCOCc3ccccc3)C2(C)C)CC1 [compound 34]"
reading_unit = "%"
value_measured = 92.3

[[record]]
compound = "CC1(C)[C@H](CCOCc2ccccc2)C[C@@H]1CN1CCC(c2ccccc2)CC1 [compound 3]"
reading_unit = "%"
value_measured = 30.2

[[record]]
compound = "CC1(C)[C@H](CCOCc2ccccc2)C[C@@H]1CN1CCN(c2ccccc2)CC1 [compound 4]"
reading_unit = "%"
value_measured = 24.1

[[record]]
compound = "CC1(C)[C@@H](CCO)C[C@H]1CN1CCC(c2ccccc2)CC1 [compound 22]"
reading_unit = "%"
value_measured = 91.9

[[record]]
compound = "CN(Cc1ccccc1)CC1CC(CCO)C1(C)C (stereo not shown) [compound 24]"
reading_unit = "%"
value_measured = 69.7


[A] CC1(C)[C@@H](CCOCc2ccccc2)C[C@H]1CN1CCC(c2ccccc2)CC1 [compound 29]
[B] C[C@@H]1CN(C[C@@H]2C[C@H](CCO)C2(C)C)C[C@H](C)O1 [compound 23]
[C] CC1(C)[C@@H](CCn2cccn2)C[C@H]1CN1CCOCC1 [compound 44]
Prompt line: Please give the order of these compounds when sorted by inhibition at 0.01 µM, largest value leading. Give the labels in the order requested.
Response line: A, C, B
(A: 76.9%, C: 41.7%, B: 27.6%)

[1] CC1(C)[C@H](CCOCc2ccccc2)C[C@@H]1CN1CCOCC1 [compound 1]
[2] CC1(C)[C@H](COCc2ccccc2)C[C@@H]1CCN1CCOCC1 [compound 39]
Prompt line: # argmax over inhibition at 0.01 µM for candidates 1 and 2 Please reply using the label of the selected record.
Response line: 2

[1] CC1(C)[C@H](CO)C[C@@H]1CCN1CCC(Cc2ccccc2)CC1 [compound 25]
[2] CC1(C)[C@@H](CCn2ccc3c2CCCC3=O)C[C@H]1CN1CCCCC1 [compound 53]
[3] CC1CCN(C[C@@H]2C[C@H](CCO)C2(C)C)CC1 [compound 21]
[4] CC1(C)[C@@H](CCO)C[C@H]1CN1CCCCC1 [compound 17]
Prompt line: Order the records, beginning with the lowest inhibition at 0.01 µM and ending with the highest. // list labels; follow requested order
Response line: 2, 3, 4, 1
(2: -6.6%, 3: 25.7%, 4: 45.2%, 1: 83%)

###

- TESTED_TARGET: sigma-1 receptor (Cavia porcellus, UniProt Q60492)
- Construct: guinea pig brains were homogenized; from tissue; host or cells: guinea pig brain membranes
- Sequence (Q60492 whole entry): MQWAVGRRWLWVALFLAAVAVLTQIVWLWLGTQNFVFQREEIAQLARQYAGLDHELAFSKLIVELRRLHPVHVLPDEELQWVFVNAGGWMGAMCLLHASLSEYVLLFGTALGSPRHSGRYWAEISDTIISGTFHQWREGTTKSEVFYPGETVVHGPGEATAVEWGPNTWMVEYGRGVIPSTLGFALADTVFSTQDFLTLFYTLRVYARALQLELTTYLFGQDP
- ASSAY_SUMMARY: Sigma-1 receptor binding ([3H]-(+)-pentazocine, brain membranes)
- STUDY_CONDITIONS: compound concentration 0.1000 μM; [3H]-(+)-pentazocine 0.5 nM; guinea pig brain membranes; read-out: Percent Inhibition Percent Concentration (μM) 0.1000 SIGMA-1 receptor
ENDPOINT: inhibition at 0.1 µM (%)

[[record]]
compound = "CC1(C)[C@@H](COCc2ccccc2)C[C@H]1CN1CCC(c2ccccc2)CC1 [compound 8]"
tested_target = "sigma-1 receptor (Cavia porcellus, UniProt Q60492)"
value_measured = 101

[[record]]
compound = "C[C@@H]1CN(C[C@@H]2C[C@H](CCOCc3ccccc3)C2(C)C)C[C@H](C)O1 [compound 32]"
tested_target = "sigma-1 receptor (Cavia porcellus, UniProt Q60492)"
value_measured = 99.1

[[record]]
compound = "CC1(C)[C@H](CO)C[C@@H]1CCN1CCC(Cc2ccccc2)CC1 [compound 25]"
tested_target = "sigma-1 receptor (Cavia porcellus, UniProt Q60492)"
value_measured = 98.3

[[record]]
compound = "CC1CCN(C[C@@H]2C[C@H](CCO)C2(C)C)CC1 [compound 21]"
tested_target = "sigma-1 receptor (Cavia porcellus, UniProt Q60492)"
value_measured = 77.1


[A] CC1(C)[C@@H](CCn2cncn2)C[C@H]1CN1CCCCC1 [compound 50]
[B] CC1(C)[C@@H](CCOc2ccccc2)C[C@H]1CN1CCCCC1 [compound 16]
Prompt line: Hi there, can you help? I need to know whether A or B has lower measured inhibition at 0.1 µM. Your answer should be the label attached to the chosen record.
Response line: A

[I] CC1(C)[C@@H](CCn2ccnc2)C[C@H]1CN1CCCCC1 [compound 48]
[II] COC(=O)C[C@H]1C[C@@H](CN2CCCCC2)C1(C)C [compound 26]
[III] CC1(C)[C@@H](CCOCc2ccccc2)C[C@H]1CN1CCCCC1 [compound 27]
Prompt line: Order the records so the highest inhibition at 0.1 µM appears first and the lowest last. Returns: the labels listed in the requested order.
Response line: III, I, II

###

- TESTED_TARGET: sigma-1 receptor (Cavia porcellus, UniProt Q60492)
- Construct: guinea pig brains were homogenized; from tissue; host or cells: guinea pig brain membranes
- ASSAY_SUMMARY: Sigma-1 receptor binding ([3H]-(+)-pentazocine, brain membranes)
- STUDY_CONDITIONS: compound concentration 0.0100 μM; [3H]-(+)-pentazocine 0.5 nM; guinea pig brain membranes; read-out: Percent Inhibition Percent Concentration (μM) 0.0100 SIGMA-1 receptor
ENDPOINT: inhibition at 0.01 µM (%)

[[record]]
molecule = "CC1(C)[C@@H](CCOCc2ccccc2)C[C@H]1CN1CCSCC1 [compound 30]"
tested_target = "sigma-1 receptor (Cavia porcellus, UniProt Q60492)"
reading_unit = "%"
value_measured = 74

[[record]]
molecule = "CC1(C)[C@@H](COCc2ccccc2)C[C@H]1CN1CCCCC1 [compound 7]"
tested_target = "sigma-1 receptor (Cavia porcellus, UniProt Q60492)"
reading_unit = "%"
value_measured = 94.5

[[record]]
molecule = "CC1(C)[C@H](COCc2ccccc2)C[C@@H]1CCN1CCCCC1 [compound 38]"
tested_target = "sigma-1 receptor (Cavia porcellus, UniProt Q60492)"
reading_unit = "%"
value_measured = 88.6

[[record]]
molecule = "CC1(C)[C@H](CCOCc2ccccc2)C[C@@H]1CN1CCCCC1 [compound 2]"
tested_target = "sigma-1 receptor (Cavia porcellus, UniProt Q60492)"
reading_unit = "%"
value_measured = 66.5

[[record]]
molecule = "CC1(C)[C@@H](CCOc2ccccc2)C[C@H]1CN1CCOCC1 [compound 15]"
tested_target = "sigma-1 receptor (Cavia porcellus, UniProt Q60492)"
reading_unit = "%"
value_measured = 93.6


###

- TESTED_TARGET: sigma-1 receptor (Cavia porcellus, UniProt Q60492)
- Construct: guinea pig brains were homogenized; from tissue; host or cells: guinea pig brain membranes
- ASSAY_SUMMARY: Sigma-1 receptor binding ([3H]-(+)-pentazocine, brain membranes)
- STUDY_CONDITIONS: compound concentration 0.1000 μM; [3H]-(+)-pentazocine 0.5 nM; guinea pig brain membranes; read-out: Percent Inhibition Percent Concentration (μM) 0.1000 SIGMA-1 receptor
ENDPOINT: inhibition at 0.1 µM (%)

[[record]]
molecule = "CN1CCN(C[C@@H]2C[C@H](CCOCc3ccccc3)C2(C)C)CC1 [compound 34]"
reading_unit = "%"
value_measured = 96.2


[A] C[C@@H]1CN(C[C@@H]2C[C@H](CCO)C2(C)C)C[C@H](C)O1 [compound 23]
[B] CC1(C)[C@@H](COCc2ccccc2)C[C@H]1CN1CCCCC1 [compound 7]
[C] CC1(C)[C@@H](CCO)C[C@H]1CN1CCOCC1 [compound 19]
Prompt line: Rank entries according to their inhibition at 0.1 µM, from the largest number down. I'd appreciate it if you listed the labels in the requested order.
Response line: B, A, C

###

- TESTED_TARGET: sigma-1 receptor (Cavia porcellus, UniProt Q60492)
- Construct: guinea pig brains were homogenized; from tissue; host or cells: guinea pig brain membranes
- ASSAY_SUMMARY: Sigma-1 receptor binding ([3H]-(+)-pentazocine, brain membranes)
- STUDY_CONDITIONS: compound concentration 0.1000 μM; [3H]-(+)-pentazocine 0.5 nM; guinea pig brain membranes; read-out: Percent Inhibition Percent Concentration (μM) 0.1000 SIGMA-1 receptor
ENDPOINT: inhibition at 0.1 µM (%)

[[record]]
molecule = "CC1(C)[C@@H](CCN2CCC(Cc3ccccc3)CC2)C[C@H]1CN1CCOCC1 [compound 42]"
endpoint = "inhibition at 0.1 µM"
value_measured = 88


[A] CN1CCN(C[C@H]2C[C@@H](CCOCc3ccccc3)C2(C)C)CC1 [compound 5]
[B] CC1(C)[C@@H](CCN2CCC(Cc3ccccc3)CC2)C[C@H]1CN1CCCCC1 [compound 52]
Prompt line: Hi! Which is lower in terms of inhibition at 0.1 µM, the first one A or the second one B ? Return value: the label identifying the chosen record.
Response line: B

[1] CC1(C)[C@@H](CCOCc2ccccc2)C[C@H]1CN1CCC(c2ccccc2)CC1 [compound 29]
[2] CC1(C)[C@@H](CCN2CCCC(c3ccccc3)C2)C[C@H]1CN1CCOCC1 (stereo partly drawn) [compound 40]
Prompt line: Which of the two items, 1 and 2 , has the greater recorded inhibition at 0.1 µM? Write down the label of the entry you select.
Response line: 1
